target: Calcium/calmodulin-dependent protein kinase type II subunit alpha (Homo sapiens) (UniProt Q9UQM7); details: at 0.1 µM;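 further: reported values are averages (mean inhibition of CAMK2A)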
Sequence (Q9UQM7 whole entry): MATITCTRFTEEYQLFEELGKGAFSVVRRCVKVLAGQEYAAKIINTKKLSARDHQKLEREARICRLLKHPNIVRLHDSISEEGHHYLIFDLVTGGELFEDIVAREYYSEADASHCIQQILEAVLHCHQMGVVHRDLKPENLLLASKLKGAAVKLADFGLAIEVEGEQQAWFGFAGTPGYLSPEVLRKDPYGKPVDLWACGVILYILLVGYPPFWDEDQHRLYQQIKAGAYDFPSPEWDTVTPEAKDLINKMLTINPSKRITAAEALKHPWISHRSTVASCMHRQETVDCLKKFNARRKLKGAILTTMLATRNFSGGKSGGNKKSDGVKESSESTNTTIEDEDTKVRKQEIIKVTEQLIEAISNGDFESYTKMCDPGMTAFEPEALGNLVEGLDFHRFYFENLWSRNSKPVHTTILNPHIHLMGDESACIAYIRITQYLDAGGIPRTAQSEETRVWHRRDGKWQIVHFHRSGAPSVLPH
# key: entry, value: inhibition

# MOLECULE SMILES, inhibition
records = [
    ("c1ccc(Oc2ccc(Nc3ncc(-c4ccccc4)o3)cc2)cc1", "-0.24%"),
    ("NS(=O)(=O)c1ccc(N/N=C2\\C(=O)Nc3ccc(-c4cnco4)cc32)cc1", "0.21%"),
    ("CCN(CC)Cc1ccc(Nc2nccc(-c3cnn4ncccc34)n2)cc1", "2.6%"),
    ("CCS(=O)(=O)c1ccc(OC)c(Nc2ncc(-c3cccc(-c4ccccc4F)c3)o2)c1", "-1.21%"),
    ("COc1cc(N2CCN(C(C)C)CC2)ccc1Nc1nc(Nc2ccc(F)cc2C(=O)NC[C@@H](O)CO)c2cc[nH]c2n1", "4.06%"),
    ("O=C(Nc1ccc(Oc2ccc3[nH]c(NC(=O)c4ccccc4)nc3c2)cc1)Nc1cc(C(F)(F)F)ccc1F", "2.8%"),
    ("NCc1ccc(-n2c(-c3nonc3N)nc3cnccc32)cc1", "4.91%"),
    ("C#Cc1cccc(Nc2ncnc3ccc(OCCCCNCCS(C)(=O)=O)cc23)c1", "3.18%"),
    ("CS(=O)(=O)CCNCc1cc(-c2cc3c(Nc4ccc(OCc5cccc(F)c5)c(Cl)c4)ncnc3s2)cs1", "3.07%"),
]
